tested on: GAK (Melanoma); experiment: combination Emax (second highest fraction inhibited in the dose matrix, 72 h); higher = more inhibition; extreme values may be limits of the assay
READOUT_KIND: combination Emax

COMPOUND | SYSTEM | ASSAY_RESULT
CC1(C)CCC(CN2CCN(c3ccc(C(=O)NS(=O)(=O)c4ccc(NCC5CCOCC5)c([N+](=O)[O-])c4)c(Oc4cnc5[nH]ccc5c4)c3)CC2)=C(c2ccc(Cl)cc2)C1 [Venetoclax] + C=CCn1c(=O)c2cnc(Nc3ccc(N4CCN(C)CC4)cc3)nc2n1-c1cccc(C(C)(C)O)n1 [AZD1775] (first compound max 1 µM, partner max 1 µM) | GAK (Melanoma) | 0.792
CS(=O)(=O)CCNCc1ccc(-c2ccc3ncnc(Nc4ccc(OCc5cccc(F)c5)c(Cl)c4)c3c2)o1 [Lapatinib] + Cn1cnc2c(F)c(Nc3ccc(Br)cc3Cl)c(C(=O)NOCCO)cc21 [Selumetinib] (first compound max 10 µM, 7x7, partner max 10 µM) | GAK (Melanoma) | 0.722
CC1(C)CCC(CN2CCN(c3ccc(C(=O)NS(=O)(=O)c4ccc(NCC5CCOCC5)c([N+](=O)[O-])c4)c(Oc4cnc5[nH]ccc5c4)c3)CC2)=C(c2ccc(Cl)cc2)C1 [Venetoclax] + C1CN(CCC1(C(=O)N[C@@H](CCO)C2=CC=C(C=C2)Cl)N)C3=NC=NC4=C3C=CN4 [Capivasertib] (first compound max 1 µM, 7x7, partner max 3 µM) | GAK (Melanoma) | 0.152

* * *

test system: MS-1 (Small Cell Lung Carcinoma); experiment: combination Emax (second highest fraction inhibited in the dose matrix, 72 h); higher = more inhibition; extreme values may be limits of the assay
READOUT_KIND: combination Emax

COMPOUND | READOUT_KIND | ASSAY_RESULT
CN(CCO)CC[C@H](CSc1ccccc1)Nc1ccc(S(=O)(=O)NC(=O)c2ccc(N3CCC([C@@H](O)c4ccccc4-c4ccc(Cl)cc4)CC3)cc2)cc1S(=O)(=O)C(F)(F)F [AZD4320] + C=CCn1c(=O)c2cnc(Nc3ccc(N4CCN(C)CC4)cc3)nc2n1-c1cccc(C(C)(C)O)n1 [AZD1775] (first compound max 1 µM, partner max 1 µM) | combination Emax | 1
COc1cccc(OCCCN)c1-c1cc(Nc2cnc(C#N)cn2)n[nH]1 [Prexasertib] + CCc1c2c(nc3ccc(O)cc13)-c1cc3c(c(=O)n1C2)COC(=O)[C@]3(O)CC [SN-38] (first compound max 1 µM, 7x7, partner max 0.3 µM) | combination Emax | 0.987

* * *

system: KALS-1 (Glioblastoma); assay: Bliss excess, mean over the matrix (fraction); higher = more synergy
Each entry below carries its recorded Bliss excess.

MOLECULE | Bliss excess
CS(=O)(=O)CCNCc1ccc(-c2ccc3ncnc(Nc4ccc(OCc5cccc(F)c5)c(Cl)c4)c3c2)o1 [Lapatinib] + Cn1cnc2c(F)c(Nc3ccc(Br)cc3Cl)c(C(=O)NOCCO)cc21 [Selumetinib] (first compound max 10 µM, 7x7, partner max 10 µM) | 0.0025
Cn1cnc2c(F)c(Nc3ccc(Br)cc3Cl)c(C(=O)NOCCO)cc21 [Selumetinib] + CC(C)n1c(=O)n(C)c2cnc3cc(F)c(-c4ccc(OCCCN5CCCCC5)nc4)cc3c21 [AZD1390] (first compound max 10 µM, 7x7, partner max 0.3 µM) | -0.0115
CN(CCO)CC[C@H](CSc1ccccc1)Nc1ccc(S(=O)(=O)NC(=O)c2ccc(N3CCC([C@@H](O)c4ccccc4-c4ccc(Cl)cc4)CC3)cc2)cc1S(=O)(=O)C(F)(F)F [AZD4320] + Cn1cnc2c(F)c(Nc3ccc(Br)cc3Cl)c(C(=O)NOCCO)cc21 [Selumetinib] (first compound max 1 µM, 7x7, partner max 3 µM) | 0.0924
Cc1cc2ncnn2cc1Nc1ncc2c(n1)n(C1CCOCC1)c(=O)n2C [AZD7648] + C=CCn1c(=O)c2cnc(Nc3ccc(N4CCN(C)CC4)cc3)nc2n1-c1cccc(C(C)(C)O)n1 [AZD1775] (first compound max 10 µM, partner max 1 µM) | -0.0051
N#Cc1cnc(Nc2cc(NC[C@H]3CNCCO3)c(C(F)(F)F)cn2)cn1 [SRA737] + Nc1ccn([C@@H]2O[C@H](CO)[C@@H](O)C2(F)F)c(=O)n1 [Gemcitabine] (first compound max 10 µM, 7x7, partner max 0.3 µM) | 0.0597
COc1cccc(OCCCN)c1-c1cc(Nc2cnc(C#N)cn2)n[nH]1 [Prexasertib] + C[C@@H]1COCCN1C2=NC(=NC(=C2)C3(CC3)[S@](=N)(=O)C)C4=C5C=CNC5=NC=C4 [AZD6738] (first compound max 1 µM, 7x7, partner max 10 µM) | -0.0557
C[C@@H](c1ccc2nccn2c1)n1nnc2ncc(-c3cnn(C)c3)nc21 [Savolitinib] + CC1(C)CCC(CN2CCN(c3ccc(C(=O)NS(=O)(=O)c4ccc(NCC5CCOCC5)c([N+](=O)[O-])c4)c(Oc4cnc5[nH]ccc5c4)c3)CC2)=C(c2ccc(Cl)cc2)C1 [Venetoclax] (first compound max 1 µM, 7x7, partner max 1 µM) | -0.0571

* * *

tested on: Raji (Burkitt's Lymphoma); test: combination Emax (second highest fraction inhibited in the dose matrix, 72 h); higher = more inhibition; extreme values may be limits of the assay

MOLECULE | combination Emax
CC1(C)CCC(CN2CCN(c3ccc(C(=O)NS(=O)(=O)c4ccc(NCC5CCOCC5)c([N+](=O)[O-])c4)c(Oc4cnc5[nH]ccc5c4)c3)CC2)=C(c2ccc(Cl)cc2)C1 [Venetoclax] + C[C@@H]1COCCN1C2=NC(=NC(=C2)C3(CC3)[S@](=N)(=O)C)C4=C5C=CNC5=NC=C4 [AZD6738] (first compound max 1 µM, 7x7, partner max 10 µM) | 0.733
COc1cccc(OCCCN)c1-c1cc(Nc2cnc(C#N)cn2)n[nH]1 [Prexasertib] + Cc1cc2ncnn2cc1Nc1ncc2c(n1)n(C1CCOCC1)c(=O)n2C [AZD7648] (first compound max 1 µM, 7x7, partner max 10 µM) | 0.97

* * *

system: SNU-C2B (Colorectal Carcinoma); assay: Bliss excess, mean over the matrix (fraction); higher = more synergy
The molecules listed here are annotated with their Bliss excess.

MOLECULE | Bliss excess
CN(CCO)CC[C@H](CSc1ccccc1)Nc1ccc(S(=O)(=O)NC(=O)c2ccc(N3CCC([C@@H](O)c4ccccc4-c4ccc(Cl)cc4)CC3)cc2)cc1S(=O)(=O)C(F)(F)F [AZD4320] + Cc1cc2ncnn2cc1Nc1ncc2c(n1)n(C1CCOCC1)c(=O)n2C [AZD7648] (first compound max 1 µM, 7x7, partner max 10 µM) | -0.0126
COc1nnc2ccc(N3CCC(c4ccc(OCCN5CCN(C)C(=O)[C@H]5C)cc4)CC3)nn12 [AZD5153] + C=CCn1c(=O)c2cnc(Nc3ccc(N4CCN(C)CC4)cc3)nc2n1-c1cccc(C(C)(C)O)n1 [AZD1775] (first compound max 1 µM, partner max 1 µM) | -0.035
COc1cccc(OCCCN)c1-c1cc(Nc2cnc(C#N)cn2)n[nH]1 [Prexasertib] + CCc1c2c(nc3ccc(O)cc13)-c1cc3c(c(=O)n1C2)COC(=O)[C@]3(O)CC [SN-38] (first compound max 1 µM, 7x7, partner max 0.3 µM) | -0.0388
COc1cccc2c1C(=O)c1c(O)c3c(c(O)c1C2=O)C[C@@](O)(C(=O)CO)C[C@@H]3O[C@H]1C[C@H](N)[C@H](O)[C@H](C)O1 [Doxorubicin] + Cc1cc2ncnn2cc1Nc1ncc2c(n1)n(C1CCOCC1)c(=O)n2C [AZD7648] (first compound max 1 µM, 7x7, partner max 10 µM) | 0.0518
CC1(C)CCC(CN2CCN(c3ccc(C(=O)NS(=O)(=O)c4ccc(NCC5CCOCC5)c([N+](=O)[O-])c4)c(Oc4cnc5[nH]ccc5c4)c3)CC2)=C(c2ccc(Cl)cc2)C1 [Venetoclax] + C[C@@H](Nc1cc(F)cc(F)c1)c1cc(C(=O)N(C)C)cc2c(=O)cc(N3CCOCC3)oc12 [AZD8186] (first compound max 1 µM, 7x7, partner max 3 µM) | -0.0408
CC(=O)c1c(C)c2cnc(Nc3ccc(N4CCNCC4)cn3)nc2n(C2CCCC2)c1=O [Palbociclib] + Cc1c2c(nn1C)CSCc1cc(n(C)n1)CSc1cc(c3ccccc3c1)OCCCc1c(C(=O)O)n(C)c3c-2c(Cl)ccc13 [AZD5991] (first compound max 10 µM, 7x7, partner max 1 µM) | -0.0477
CN(C)CCCOc1ccc(-c2ccc3ncc4c(c3c2)n(C2CCOCC2)c(=O)n4C)cn1 [AZD0156] + C[C@@H]1COCCN1C2=NC(=NC(=C2)C3(CC3)[S@](=N)(=O)C)C4=C5C=CNC5=NC=C4 [AZD6738] (first compound max 1 µM, 7x7, partner max 10 µM) | 0.0183
C[C@@H](c1ccc2nccn2c1)n1nnc2ncc(-c3cnn(C)c3)nc21 [Savolitinib] + CN(CC[C@H](CSC1=CC=CC=C1)NC2=C(C=C(C=C2)S(=O)(=O)NC(=O)C3=CC=C(C=C3)N4CCC(CC4)[C@H](C5=CC=CC=C5C6=CC=C(C=C6)Cl)O)S(=O)(=O)C(F)(F)F)CCO [AZD4320] (first compound max 1 µM, 7x7, partner max 1 µM) | -0.101
Cc1c2c(nn1C)CSCc1cc(n(C)n1)CSc1cc(c3ccccc3c1)OCCCc1c(C(=O)O)n(C)c3c-2c(Cl)ccc13 [AZD5991] + Cn1cnc2c(F)c(Nc3ccc(Br)cc3Cl)c(C(=O)NOCCO)cc21 [Selumetinib] (first compound max 1 µM, 7x7, partner max 3 µM) | 0.0671
Cc1c2c(nn1C)CSCc1cc(n(C)n1)CSc1cc(c3ccccc3c1)OCCCc1c(C(=O)O)n(C)c3c-2c(Cl)ccc13 [AZD5991] + C[C@@H]1COCCN1C2=NC(=NC(=C2)C3(CC3)[S@](=N)(=O)C)C4=C5C=CNC5=NC=C4 [AZD6738] (first compound max 1 µM, 7x7, partner max 10 µM) | -0.0199

Ref: the supplement of paper PMC11061612
